tested_system: HLA-A*30:02
experimental_details: IEDB peptide-MHC binding, purified MHC/competitive/radioactivity; filed as Kd, often an IC50 or EC50 that approximates it; bounds were set here for any values at or beyond the usual limits of such assays
assay_setup: source organism: Mammarenavirus brazilense
recorded_metric: Kd (µM)

INSERT INTO assay_data (biopolymer_sequence, measured_number) VALUES
  ('KVNACHHNY', 0.0117),
  ('VDICFWSTL', 9.76);

* * *

tested_system: HLA-A*26:01
experimental_details: IEDB peptide-MHC binding, purified MHC/competitive/fluorescence; filed as Kd, often an IC50 or EC50 that approximates it; bounds were set here for any values at or beyond the usual limits of such assays
assay_setup: source organism: Azotobacter vinelandii DJ
pKd: −log10 of the molar value.
recorded_metric: pKd

INSERT INTO assay_data (biopolymer_sequence, recorded_metric, result) VALUES
  ('DGLSSVGGY', 'pKd', '≤ 4.70');
